Here, each record is paired with measured MIC data.
Test system: Enterococcus faecalis
Assay: Antibacterial activity against Enterococcus faecalis assessed as inhibition of bacterial growth after 24 hrs by CLSI protocol based two fold serial dilution method
Assay type: functional
Quick reminder: number only, in µM, skip the unit.

Examples with their reported MIC follow.
>>> observedresult("CCn1cc(-c2csc(N)n2)c(=O)c2cc(F)c(N3CCN(CC#N)CC3)cc21")
19
>>> observedresult("CCn1cc(-c2csc(N)n2)c(=O)c2cc(F)c(N3CCN(CC(=O)N(C(C)C)C(C)C)CC3)cc21")
249
>>> observedresult("CCCCN1CCN(c2cc3c(cc2F)c(=O)c(-c2csc(N)n2)cn3CC)CC1")
75
>>> observedresult("C#CCN1CCN(c2cc3c(cc2F)c(=O)c(-c2csc(N)n2)cn3CC)CC1")
19
>>> observedresult("CCOC(=O)CN1CCN(c2cc3c(=O)c(-c4csc(N)n4)cn(CC)c3cc2Cl)CC1")
539
>>> observedresult("CCn1cc(-c2csc(N)n2)c(=O)c2cc(F)c(N3CCNCC3)cc21")
171
>>> observedresult("CCn1cc(-c2csc(N)n2)c(=O)c2cc(F)c(N3CCN(CC(=O)N(CCO)CCO)CC3)cc21")
15
>>> observedresult("CCn1cc(-c2csc(N)n2)c(=O)c2cc(F)c(N3CCN(Cc4ccc(Cl)cc4Cl)CC3)cc21")
121
>>> observedresult("CCn1cc(-c2csc(N)n2)c(=O)c2cc(N3CCN(c4cc5c(cc4F)c(=O)c(-c4csc(N)n4)cn5CC)CC3)c(Cl)cc21")
757
>>> observedresult("CCCN1CCN(c2cc3c(cc2F)c(=O)c(-c2csc(N)n2)cn3CC)CC1")
154

Q: Identify the measured MIC of CCOC(=O)CN1CCN(c2cc3c(cc2F)c(=O)c(-c2csc(N)n2)cn3CC)CC1 for Enterococcus faecalis.
Result: 279

Q: # value lookup — system Enterococcus faecalis, readout MIC, item CCn1cc(-c2csc(N)n2)c(=O)c2cc(F)c(N3CCN(CC(C)=O)CC3)cc21
Result: 149

Q: Query the reported MIC for Enterococcus faecalis; item: CCCCCCCCCCN1CCN(c2cc3c(cc2F)c(=O)c(-c2csc(N)n2)cn3CC)CC1
Result: 499

Q: Which measured MIC belongs to CCCCCCN1CCN(c2cc3c(cc2F)c(=O)c(-c2csc(N)n2)cn3CC)CC1 , tested on Enterococcus faecalis?
Result: 70

###

System: Candida tropicalis
Assay: Antifungal activity against Candida tropicalis assessed as inhibition of fungal growth after 24 hrs by CLSI protocol based two fold serial dilution method
Format: functional
Each entry below lists one item and its recorded MIC value.
Your answer is read as µM, so omit the unit and give the number.

Q: Which measured MIC belongs to CCOC(=O)CN1CCN(c2cc3c(cc2F)c(=O)c(-c2csc(N)n2)cn3CC)CC1 , tested on Candida tropicalis?
Result: 139

Q: Observed MIC on Candida tropicalis for C#CCN1CCN(c2cc3c(cc2F)c(=O)c(-c2csc(N)n2)cn3CC)CC1 , please.
Result: 39

Q: Notebook: pull reported MIC for Candida tropicalis, entry CCN(CC)C(=O)CN1CCN(c2cc3c(cc2F)c(=O)c(-c2csc(N)n2)cn3CC)CC1
Result: 132

Q: What reported MIC corresponds to CCCCN1CCN(c2cc3c(cc2F)c(=O)c(-c2csc(N)n2)cn3CC)CC1 on Candida tropicalis?
Result: 9

Q: # value lookup — system Candida tropicalis, readout MIC, item CCn1cc(-c2csc(N)n2)c(=O)c2cc(F)c(N3CCN(Cc4ccc(Cl)cc4)CC3)cc21
Result: 32

Cited source for all entries: ChEMBL document CHEMBL4665627
